- PROCEDURE_DETAILS: Cell Viability - NIH 3T3 (AID 541);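 note: cells exposed to compound for 40 hours; plate controls were DMSO alone for no effect and tamoxifen positive control for full effect; nearly all actives have a fitted effect of over 25% in size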
- EXPERIMENTAL_PARAMETERS: NIH 3T3 cell viability, qHTS; at 92.2 µM (top of the series)
Inconclusive results are not listed.
Recorded activity change, negative = cytotoxicity, one value per entry.

{"columns": ["COMPOUND", "activity change, negative = cytotoxicity (%)"],
 "data": [
  ["CC(=O)CC(=O)Nc1ccccc1", -3.89],
  ["CC(=O)Nc1cccc(C)c1", -12.7],
  ["c1ccc2ncccc2c1", -0.00606],
  ["NC(=O)c1ccc([N+](=O)[O-])cc1", -5.57],
  ["CCOc1ccc2nc(N)sc2c1", -15.3],
  ["C=C(C#N)C(=O)OCC", -117],
  ["O=C(Cl)c1ccc([N+](=O)[O-])cc1", -20],
  ["Oc1cc(Cl)cc(Cl)c1Cl", -14.4],
  ["c1ccc(Nc2cccc3ccccc23)cc1", -22.5],
  ["C=CC(=O)CC", -11.9],
  ["Cc1c(C(=O)O)c(O)cc2c1C(=O)c1c(O)c([C@H]3O[C@H](CO)[C@@H](O)[C@H](O)[C@H]3O)c(O)c(O)c1C2=O", -80.4],
  ["Brc1ccc(-c2ccccc2)cc1", -9.21],
  ["C/C=C/C=C/C=O", -142],
  ["Oc1cc2c(cc1O)[C@H]1c3ccc(O)c(O)c3OC[C@@]1(O)C2", -89.3],
  ["CCCCNCC", -8.38],
  ["CC(=O)c1ccc(Cl)c(Cl)c1Cl", -14.4],
  ["CC(CCC(=O)O)(c1ccc(O)cc1)c1ccc(O)cc1", -7.14],
  ["c1c[nH]cn1", -10],
  ["CCCCC(CC)COC(=O)COc1ccc(Cl)cc1Cl (stereo not given)", 0.559],
  ["C[Si](C)(C)Cl", -21.3],
  ["O=[N+]([O-])c1cccc(I)c1", -7.89],
  ["Clc1nc2ccccc2nc1Cl", -143],
  ["CCc1ccc(C(c2ccc(CC)cc2)C(Cl)Cl)cc1", -11.4],
  ["Nc1ccc(-c2ccc(N)c(O)c2)cc1O", -88.2],
  ["CC(C)COC(=O)COc1cc(Cl)c(Cl)cc1Cl", -0.53],
  ["C=CC(C)(O)CCCC(C)CCCC(C)CCCC(C)C (stereo not given)", -10.5],
  ["c1ccc(SCCSc2ccccc2)cc1", -5.55],
  ["COc1ccc([N+](=O)[O-])cc1N", -29.6],
  ["O=C(OCc1ccccc1)c1ccccc1O", -9.56],
  ["CCCCOC(=O)COc1ccc(Cl)cc1Cl", 1.3]
]}

###

- PROCEDURE_DETAILS: Cellular Toxicity (caspase-3) NIH 3T3 (AID 666);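 note: caspase signal read after 16 h compound exposure; 0% = DMSO basal and 100% = 100 µM tamoxifen stimulation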
- EXPERIMENTAL_PARAMETERS: NIH 3T3 caspase-3 activation, apoptosis/toxicity, 0% DMSO, 100% is 100 µM tamoxifen; series mostly up to 92.2 µM
- Text: NIH Chemical Genomics Center [NCGC] NIH Molecular Libraries Screening Centers Network [MLSCN] National Institutes of Environmental Health Sciences [NIEHS] National Toxicology Program [NTP] We have developed a 1536-well cell-based assay for quantitative high throughput screening (qHTS) against a number of cell lines to determine in vitro caspase 3/7 of small molecules. […] 8. Detection; Luminescence; Viewlux plate reader […]
Inconclusive results are not listed. Activity calls are given as the source filed them. Calls come from the whole dose curve; as a rule, active = well fitted activation curve with a large enough effect; inconclusive = small, poorly fitted or top-dose-only effect, or effect the other way; inactive = flat fitted curve, though single readings scatter.

{"columns": ["COMPOUND", "outcome"],
 "data": [
  ["CC/C=C/C/C=C/C/C=C/CCCCCCCC(=O)OCC", "inactive"],
  ["COc1cc(-c2ccc(N=C=O)c(OC)c2)ccc1N=C=O", "inactive"],
  ["C=CC1CO1 (stereo not drawn)", "inactive"],
  ["N=C1C=CC(=C(c2ccc(N)cc2)c2ccc(N)cc2)C=C1", "inactive"],
  ["CCCCCCc1ccc(-c2ccc(C#N)cc2)cc1", "inactive"],
  ["c1ccc(SCCSc2ccccc2)cc1", "inactive"],
  ["C/C=C/C=C/C=O", "inactive"],
  ["c1ccc2ncccc2c1", "inactive"]
]}
